Target: T1, cyno IL-23 (cyno, limits assumed)
T1 construct: Heterodimer of p19 and p40; also called cynomolgus IL-23
T1 chain 1: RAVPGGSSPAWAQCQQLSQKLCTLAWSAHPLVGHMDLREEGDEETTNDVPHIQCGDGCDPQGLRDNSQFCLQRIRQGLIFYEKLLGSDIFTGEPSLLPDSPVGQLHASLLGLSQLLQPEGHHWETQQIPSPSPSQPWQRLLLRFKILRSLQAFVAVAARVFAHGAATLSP
T1 chain 2: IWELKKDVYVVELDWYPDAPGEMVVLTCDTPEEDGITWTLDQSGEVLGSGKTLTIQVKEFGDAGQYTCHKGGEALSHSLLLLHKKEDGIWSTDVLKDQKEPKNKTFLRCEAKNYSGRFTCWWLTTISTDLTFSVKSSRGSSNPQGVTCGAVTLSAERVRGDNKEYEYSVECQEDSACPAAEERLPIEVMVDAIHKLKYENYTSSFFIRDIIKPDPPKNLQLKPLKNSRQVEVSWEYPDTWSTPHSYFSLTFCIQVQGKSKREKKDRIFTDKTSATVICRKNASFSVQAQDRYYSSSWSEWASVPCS
Test: SPR Biacore T100, mAb from HEK supernatant captured on anti-human IgG, one concentration of cyno IL-23 (256 nM)

>  <binder>
A3M18 (antibody, human IgG1, kappa, V domains shown) VH: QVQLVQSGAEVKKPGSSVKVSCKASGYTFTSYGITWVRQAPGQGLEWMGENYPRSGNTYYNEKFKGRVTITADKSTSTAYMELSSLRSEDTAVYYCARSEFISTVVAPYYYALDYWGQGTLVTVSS VL: DIVMTQSPDSLAVSLGERATINCKASKKVTIFGSTSALHWYQQKPGQPPKLIYNLAKPESGVPDRFSGSGSGTDFTLTISSLQAEDVAVYYCLQNKEVPYTFGGGTKVEIKR

>  <koff [s⁻¹]>
0.000163

$$$$
>  <binder>
A3M0 (antibody, human IgG1, kappa, V domains shown, human gamma1 and kappa constant regions; Tested as HEK supernatant and as purified antibody; also called A3M0 purified) VH: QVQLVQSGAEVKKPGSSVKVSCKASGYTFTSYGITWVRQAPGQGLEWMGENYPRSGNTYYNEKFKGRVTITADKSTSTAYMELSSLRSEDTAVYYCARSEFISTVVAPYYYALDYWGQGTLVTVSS VL: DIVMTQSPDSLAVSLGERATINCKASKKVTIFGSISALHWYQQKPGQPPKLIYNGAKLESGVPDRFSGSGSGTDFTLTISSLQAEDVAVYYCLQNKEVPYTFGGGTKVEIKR

>  <koff [s⁻¹]>
0.000484

$$$$
>  <binder>
A24AM18 (antibody, human IgG1, kappa, V domains shown) VH: QVQLVQSGAEVKKPGSSVKVSCKASGYTFTSYGITWVRQAPGQGLEWMGENYPRSGNIYYNEKFKGRVTITADKSTSTAYMELSSLRSEDTAVYYCARAEFISTVVAPYYYALDYWGQGTLVTVSS VL: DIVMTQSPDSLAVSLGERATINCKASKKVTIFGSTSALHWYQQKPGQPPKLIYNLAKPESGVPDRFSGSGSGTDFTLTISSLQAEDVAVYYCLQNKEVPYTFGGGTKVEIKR

>  <koff [s⁻¹]>
0.000176

$$$$
>  <binder>
A5M21 (antibody, human IgG1, kappa, V domains shown) VH: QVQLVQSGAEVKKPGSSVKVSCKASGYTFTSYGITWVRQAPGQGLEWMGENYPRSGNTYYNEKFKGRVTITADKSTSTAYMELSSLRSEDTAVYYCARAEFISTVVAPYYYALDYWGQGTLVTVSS VL: DIVMTQSPDSLAVSLGERATINCKASKKVTIYGSTSALHWYQQKPGQPPKLIYNLAKPESGVPDRFSGSGSGTDFTLTISSLQAEDVAVYYCLQNKEVPYTFGGGTKVEIKR

>  <koff [s⁻¹]>
0.000123

$$$$
>  <binder>
A5M20 (antibody, human IgG1, kappa, V domains shown) VH: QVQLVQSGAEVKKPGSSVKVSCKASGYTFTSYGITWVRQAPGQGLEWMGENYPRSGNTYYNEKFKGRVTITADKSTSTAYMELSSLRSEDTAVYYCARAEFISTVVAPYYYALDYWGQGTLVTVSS VL: DIVMTQSPDSLAVSLGERATINCKASKKVTIFGSISALHWYQQKPGQPPKLIYNLAKLESGVPDRFSGSGSGTDFTLTISSLQAEDVAVYYCLQNKEVPYTFGGGTKVEIKR

>  <koff [s⁻¹]>
0.000306

$$$$
>  <binder>
A6M20 (antibody, human IgG1, kappa, V domains shown) VH: QVQLVQSGAEVKKPGSSVKVSCKASGYTFTSYGITWVRQAPGQGLEWMGENYPRSGNTYYNEKFKGRVTITADKSTSTAYMELSSLRSEDTAVYYCARVEFISTVVAPYYYALDYWGQGTLVTVSS VL: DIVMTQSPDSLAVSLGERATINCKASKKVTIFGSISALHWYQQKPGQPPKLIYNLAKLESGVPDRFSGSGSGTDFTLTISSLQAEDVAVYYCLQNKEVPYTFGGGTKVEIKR

>  <koff [s⁻¹]>
0.000497

$$$$
